Please respond with reported log10 of IC50 for every item in the list.
System Name: kinase domain of the human TrkB receptor (amino acids 526-838) (Homo sapiens)
Construct: human TrkB receptor (amino acids 526-838); His; purchased Invitrogen; host or cells: insect cells
Sequence (Q16620 510-822): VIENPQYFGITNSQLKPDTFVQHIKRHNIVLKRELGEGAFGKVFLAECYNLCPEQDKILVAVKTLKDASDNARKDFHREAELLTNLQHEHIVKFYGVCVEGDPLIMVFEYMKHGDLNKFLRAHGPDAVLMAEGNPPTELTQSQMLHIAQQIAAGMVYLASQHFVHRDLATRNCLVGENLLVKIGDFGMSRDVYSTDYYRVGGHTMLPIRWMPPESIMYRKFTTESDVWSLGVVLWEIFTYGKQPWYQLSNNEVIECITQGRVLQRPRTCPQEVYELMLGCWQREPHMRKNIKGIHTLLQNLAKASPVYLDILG
Assay Info: TrkB tyrosine kinase assay (33P, polyGluTyr substrate)
Assay type: biochemical
Test Settings: 30 uM ATP, 0.1 mg/ml PGT
Log10 applied to IC50; unit prior to transform: nM.

Query: Fill blank: measured log10 of IC50 of the compound "N[C@H]1CCN(c2nc(Nc3cc(C4CC4)n[nH]3)c3cccn3n2)C1" is ____.
Response: 1.00

Query: Next compound: "C[C@H]1C[C@@H]1c1cc(Nc2nc(N3CCC(N)CC3)nn3cccc23)[nH]n1"
Response: 0.00

Query: Next compound: "CC(C)(C)c1cc(Nc2nc(N3CCC(N)CC3)nn3cccc23)[nH]n1"
Response: 1.93

Query: Next compound: "Cc1cc(Nc2nc(N3CCNCC3)nn3cccc23)n[nH]1"
Response: 2.29

Query: Next compound: CCC(C)c1cc(Nc2nc(N3CCC(N)CC3)nn3cccc23)[nH]n1 (centres unmarked)
Response: 1.30
